test: Cytotoxicity against human HepG2 cells after 4 days by resazurin assay
Assay type: cell-based
measured_parameter: CC50 at 96 h

Incoming: Give me measured CC50 at 96 h, please, for this compound: Cc1cc(F)cc(NC(=O)c2cccc(S(=O)(=O)NC3CCCC3)c2)c1
Outgoing: > 23 µM

Incoming: Give me measured CC50 at 96 h, please, for this compound: O=C(Nc1nccs1)c1cc(S(=O)(=O)NC2CCCCC2)ccc1F
Outgoing: > 25 µM

Incoming: Give me measured CC50 at 96 h, please, for this compound: O=C(Nc1ccncc1)c1cc(S(=O)(=O)NC2CCCCC2)ccc1F
Outgoing: > 25 µM

Incoming: Give me measured CC50 at 96 h, please, for this compound: O=C(Nc1ccc(F)cc1)c1cccc(S(=O)(=O)N[C@@H]2CCOC2)c1
Outgoing: > 100 µM

---

Tested on: HBV genotype D
test: Antiviral activity against HBV genotype D infected in human HepG2.2.15 cells assessed as inhibition of viral DNA level treated twice for 3 days measured after 6 days by real time PCR
Type: functional, organism-based
details: Hepatitis B virus
Listing of entries alongside the reported EC50.
Numbers only; they are read as nM.

Known EC50 results, listed for orientation:
> print(dat)
                                         smi  experimental.result
 1  CC[C@@H](C)NS(=O)(=O)c1cccc(C(=O)Nc2ccc(F)cc2)c1                  340
 2  O=C(Nc1ccccc1)c1cccc(S(=O)(=O)NC2CCCC2)c1                  600
 3  CN1CCN(S(=O)(=O)c2cccc(C(=O)Nc3ccc(F)cc3)c2)CC1                26500
 4  CCC(CC)NS(=O)(=O)c1cccc(C(=O)Nc2ccc(F)cc2)c1                  750
 5  O=C(Nc1cccc2ccccc12)c1cc(S(=O)(=O)NC2CCCCC2)ccc1F                15600
 6  O=C(Nc1ccc(F)cc1)c1cc(S(=O)(=O)NC2CCCCC2)ccc1F                  780
 7  Cc1cc(F)cc(NC(=O)c2cccc(S(=O)(=O)NC3CCCC3)c2)c1                  110
 8  O=S(=O)(NC1CCCCC1)c1ccc(F)c(-c2ncc(-c3ccccc3)[nH]2)c1                 1700
 9  Cc1cc(NC(=O)c2cccc(S(=O)(=O)N[C@H]3CCOC3)c2)ccc1F                  120
10  CN(C(=O)c1cccc(S(=O)(=O)NC2CCCC2)c1)c1ccc(F)cc1                89600

Incoming: Name the recorded EC50 of O=C(Nc1ccc(F)cc1)c1cccc(S(=O)(=O)NC2COC2)c1 , assay system HBV genotype D.
Outgoing: 2100

Incoming: Name the recorded EC50 of O=C(Nc1ccc(F)cc1)c1ccc(Cl)c(S(=O)(=O)N2CCCCCC2)c1 , assay system HBV genotype D.
Outgoing: 660

Incoming: Name the recorded EC50 of O=C(Nc1cccc(S(=O)(=O)NC2CCCCC2)c1)c1ccccc1 , assay system HBV genotype D.
Outgoing: 9600

Incoming: Name the recorded EC50 of O=C(Nc1cc(F)cc(F)c1)c1cccc(S(=O)(=O)NC2CCCC2)c1 , assay system HBV genotype D.
Outgoing: 280

Incoming: Name the recorded EC50 of CC(=O)N1CCC(NS(=O)(=O)c2cccc(C(=O)Nc3ccc(F)cc3)c2)CC1 , assay system HBV genotype D.
Outgoing: 6770
